measuredTarget: wildtype feline IL-31 (Feline_IL31_wildtype) (feline)
Sequence (chain, as listed by the source limits assumed, form in doubt): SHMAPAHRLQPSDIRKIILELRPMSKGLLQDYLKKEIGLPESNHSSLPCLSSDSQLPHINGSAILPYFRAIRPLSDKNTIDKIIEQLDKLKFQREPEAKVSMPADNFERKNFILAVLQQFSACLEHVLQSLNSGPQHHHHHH
testName: SPR (Biacore), immobilised IL-31, 1:1 fit
propertyName: kon
The reply should read as a number followed by its unit.

Before answering, review these 6 worked examples.
mouse anti IL-31 antibody 11E12 (antibody, V domains shown) VH: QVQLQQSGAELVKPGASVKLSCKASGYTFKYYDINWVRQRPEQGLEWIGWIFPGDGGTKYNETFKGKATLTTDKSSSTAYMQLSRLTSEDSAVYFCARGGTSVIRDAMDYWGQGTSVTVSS VL: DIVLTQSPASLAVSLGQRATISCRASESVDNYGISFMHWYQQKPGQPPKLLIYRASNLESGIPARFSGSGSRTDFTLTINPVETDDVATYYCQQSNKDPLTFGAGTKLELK ... 167000 M⁻¹ s⁻¹
Feline 15H05 VH2 mouse VL (antibody, V domains shown) VH: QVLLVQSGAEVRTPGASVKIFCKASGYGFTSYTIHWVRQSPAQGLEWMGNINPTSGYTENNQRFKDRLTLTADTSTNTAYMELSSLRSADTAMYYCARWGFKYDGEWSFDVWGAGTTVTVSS VL: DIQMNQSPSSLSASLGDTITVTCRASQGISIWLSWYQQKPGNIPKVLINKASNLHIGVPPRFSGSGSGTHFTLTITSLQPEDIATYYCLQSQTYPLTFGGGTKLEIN ... 34000 M⁻¹ s⁻¹
Feline 15H05 3.3 (antibody, V domains shown) VH: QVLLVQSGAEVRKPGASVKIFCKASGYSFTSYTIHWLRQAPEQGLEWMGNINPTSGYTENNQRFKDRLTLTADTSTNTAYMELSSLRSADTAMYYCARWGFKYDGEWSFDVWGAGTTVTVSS VL: EVVLTQSSAFLSRTLKEKATITCRASQGISIWLSWYQQKPNQAPKLLVKKASNLHIGAPSRFSGSGSGTDFTLTISSPEPEDAATYYCLQSQTYPLTFGGGTKLGDQ ... 76300 M⁻¹ s⁻¹
Feline 15H05 2.2 (antibody, V domains shown) VH: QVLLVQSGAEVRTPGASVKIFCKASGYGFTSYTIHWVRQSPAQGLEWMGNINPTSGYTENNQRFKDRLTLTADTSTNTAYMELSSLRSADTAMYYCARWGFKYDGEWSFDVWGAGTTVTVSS VL: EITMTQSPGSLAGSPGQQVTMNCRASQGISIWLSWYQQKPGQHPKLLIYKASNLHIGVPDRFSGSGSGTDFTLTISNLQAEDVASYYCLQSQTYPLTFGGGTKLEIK ... 905000 M⁻¹ s⁻¹
Feline 15H05 1.1 V43I (antibody, V domains shown) VH: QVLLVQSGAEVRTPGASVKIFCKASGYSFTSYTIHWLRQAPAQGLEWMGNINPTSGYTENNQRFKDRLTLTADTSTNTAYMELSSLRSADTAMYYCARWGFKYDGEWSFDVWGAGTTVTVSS VL: EIQMTQSPSSLSASPGDRVTITCRASQGISIWLSWYQQKPGKIPKLLIYKASNLHIGVPSRFSGSGSGTDFTLTISSLEPEDAATYYCLQSQTYPLTFGGGTKLEIK ... 29400 M⁻¹ s⁻¹
Feline 15H05 1.1 (antibody, V domains shown) VH: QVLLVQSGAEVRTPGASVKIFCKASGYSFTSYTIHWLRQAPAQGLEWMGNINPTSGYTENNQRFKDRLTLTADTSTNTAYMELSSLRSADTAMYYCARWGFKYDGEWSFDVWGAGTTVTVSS VL: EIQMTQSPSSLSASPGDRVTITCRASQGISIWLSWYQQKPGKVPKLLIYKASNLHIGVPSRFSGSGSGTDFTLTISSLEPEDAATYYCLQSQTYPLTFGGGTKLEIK ... 97100 M⁻¹ s⁻¹

Could you share which kon value was measured for Feline 15H05_VH3 mouse VL (antibody, V domains shown) VH: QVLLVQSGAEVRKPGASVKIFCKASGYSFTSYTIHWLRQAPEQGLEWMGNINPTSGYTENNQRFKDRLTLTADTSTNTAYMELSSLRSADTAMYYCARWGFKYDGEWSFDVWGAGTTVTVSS VL: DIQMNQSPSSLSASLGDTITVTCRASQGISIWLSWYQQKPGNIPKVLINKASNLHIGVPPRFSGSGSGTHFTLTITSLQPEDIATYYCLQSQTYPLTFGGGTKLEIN ?
88900 M⁻¹ s⁻¹

Name the reported kon value associated with the binder Feline 15H05 3.2 (antibody, V domains shown) VH: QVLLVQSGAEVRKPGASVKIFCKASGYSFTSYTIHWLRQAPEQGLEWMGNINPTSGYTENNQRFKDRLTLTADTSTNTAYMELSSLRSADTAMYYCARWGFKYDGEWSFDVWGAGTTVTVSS VL: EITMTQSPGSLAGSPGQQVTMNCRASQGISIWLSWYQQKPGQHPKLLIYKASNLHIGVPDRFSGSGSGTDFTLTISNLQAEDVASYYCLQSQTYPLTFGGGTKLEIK
132000 M⁻¹ s⁻¹

Suppose we examine the binder Feline 11E12 1.1 (antibody, V domains shown) VH: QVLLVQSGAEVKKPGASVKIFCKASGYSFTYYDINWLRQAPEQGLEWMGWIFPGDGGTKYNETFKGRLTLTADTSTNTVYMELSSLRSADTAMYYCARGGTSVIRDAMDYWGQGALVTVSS VL: EIQMTQSPSSLSASPGDRVTITCRASESVDNYGISFMHWYQQKPGKVPKLLIYRASNLESGVPSRFSGSGSGTDFTLTISSLEPEDAATYYCQQSNKDPLTFGQGT ; what kon value has been reported?
20000 M⁻¹ s⁻¹

What value of measured kon is listed for Feline 15H05 1.1 FW2 (antibody, V domains shown) VH: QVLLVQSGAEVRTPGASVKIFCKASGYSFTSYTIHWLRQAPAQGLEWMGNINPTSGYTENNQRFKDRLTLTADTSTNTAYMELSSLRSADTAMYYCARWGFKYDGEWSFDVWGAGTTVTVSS VL: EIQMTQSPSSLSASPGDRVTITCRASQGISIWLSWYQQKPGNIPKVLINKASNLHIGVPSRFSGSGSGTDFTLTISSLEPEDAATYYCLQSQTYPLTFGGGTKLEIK ?
383000 M⁻¹ s⁻¹
